Assay: Quantitative High-Throughput drug screen in 47 multiple myeloma cell lines against the NCATS MIPE library collection: MM1R_ATCC cell viability assay (AID 1918981); further: nearly all actives have a fitted effect of over 35% in size
Details: MM1R multiple myeloma cells, CellTiter-Glo viability, 48 h; series mostly up to 45.8 µM
Records with an inconclusive call do not appear. The source made the active and inactive calls. The call rests on the fitted dose curve; in most records, active means well fitted cell-killing curve with a large enough effect; inconclusive means small, poorly fitted or top-dose-only effect, or effect the other way; inactive means no such curve, though single readings can be large or run the other way.
Output constraint: value belongs to True (active), False (inactive)

Please review the following examples before continuing.
compound	label.class
NC[C@@H]1O[C@@H](O[C@H]2[C@@H](O)[C@H](O[C@@H]3[C@@H](O)[C@@H](N)C[C@H](N)[C@H]3O[C@H]3O[C@H](CN)[C@@H](O)[C@@H](O)[C@H]3N)O[C@H]2CO)[C@H](N)[C@@H](O)[C@@H]1O	False
COc1ccc2c3c1OC1C[C@@H](O)C=C[C@@]31CCN(C)C2 (some centres undefined)	False
CC(=O)N(C)C1(c2ccccc2)CCN(CCC[C@]2(c3ccc(Cl)c(Cl)c3)CCCN(C(=O)c3ccccc3)C2)CC1	True

Next:
# input Per the assay record, what outcome was assigned to O=c1c(-c2ccc(O)cc2)coc2cc(OC3O[C@H](CO)[C@H](O)[C@H](O)[C@H]3O)cc(O)c12 (some centres undefined) ?
# output True
